Values were extracted from PubChem BioAssay (NCI).

I'd be grateful if you could share measured TGI for these entries.
# System: MALME-3M melanoma
# Experimental Details: NCI tumour cell line growth inhibition, 48 h

The examples below pair each entry with its known result.
O=[N+]([O-])C(=C1Nc2ccccc2N1)C(Cl)=C(Cl)Cl : > 100 µM
CC(=O)O[C@H]1CCC2[C@@H]3CCC4C(=O)c5oncc5C[C@]4(C)C3CC[C@@]21C (stereo not given in full) : > 100 µM
Cc1ccc(S(=O)(=O)n2ccn3c(=O)cc(C)nc23)cc1 : > 10 µM

List reported TGI for each of these compounds:
1. Nc1nc(Cl)cc(Nc2ccc3c(c2)CCC3)n1
2. OC[C@H]1CC(c2nn[nH]n2)[C@H](O)[C@@H]1O (stereo not given in full)

1: > 100 µM; 2: > 100 µM

====

# System: PC-3 prostate
# Experimental Details: NCI tumour cell line growth inhibition, 48 h
Property Name: TGI

CCN(C)S(=O)(=O)Nc1cccc(Nc2ncnc3cc(NC(=O)CCl)ccc23)c1Cl : 8.32 µM
NC(N)=NC(N)=NCCc1ccccc1 : > 100 µM
O=c1cccc(C#CCCCCOC2CCCO2)o1 (stereo not given) : > 54.6 µM
CSC(=S)NN=C1CCCCC1 : > 100 µM

Below are 5 compounds. Give each one its TGI.
1. COc1cc(Cn2c3c(c4cc(O)ccc42)C(=O)c2ccccc2C3=O)cc(OC)c1
2. O=C(c1nsc(Cl)c1Cl)N1CCCCC1
3. Clc1ccc2c(NCCCN3CCN(c4nc(-n5ccnc5)nc5ccccc45)CC3)ccnc2c1
4. COc1cc2c[n+](C)c3c4ccccc4ccc3c2cc1OC
5. CCOC(=O)c1sc2nc(SC)nc(Nc3ccc(OC)c(OC)c3)c2c1N

1: 11.8 µM; 2: > 100 µM; 3: > 100 µM; 4: > 43.2 µM; 5: > 100 µM

// lookup TGI for COc1cccc(/C=N/n2c(-c3ccccc3)n[nH]c2=O)c1 > 100 µM

====

What TGI was measured for each of the following?
# Test system: SNB-19 CNS
# Experimental Details: NCI tumour cell line growth inhibition, 48 h

Respectfully, I request TGI for each entry included below.
1. Nc1nc(=O)n(C2OC(CO)C(O)C2O)cc1F (centres undefined)
2. CC(C)OCN1COCN=C1NC#N
3. COc1cc2c(cc1OC)-c1c(cc(OC)c(OC)c1OC)C2=O

["> 100 µM", "> 100 µM", "> 100 µM"]

Item Cc1ccc(S(=O)(=O)n2ccn3c(=O)cc(C)nc23)cc1 has what recorded TGI? > 10 µM

====

# Tested on: UO-31 renal
# Experimental Details: NCI tumour cell line growth inhibition, 48 h
Record form. Attribute: TGI. Fill in for each entry.

COc1ccc(C(=O)C(C(=O)C(=O)Nc2nc3ccc(OC)cc3s2)c2ccc(OC)cc2)cc1 (configuration not stated) : > 100 µM

I have 7 compounds here; please give me TGI for each one.
1. Clc1ccc2c(NCCNc3nc(-c4ccccc4)cc(-c4ccccc4)n3)ccnc2c1
2. COc1cc2cc(C(=O)O)[nH]c2cc1OCc1ccccc1
3. COc1cc2cc(C(=O)N3CC(COS(C)(=O)=O)c4c3cc([N+](=O)[O-])c3ccccc43)[nH]c2c(OC)c1OC (configuration not stated)
4. CCOC(=O)C(=Cc1ccc(Br)cc1)C(=O)OCC
5. CC(C)(C)OC(=O)C1/C(=C/CO)CN1C(=O)OC(C)(C)C (configuration not stated)
6. Cc1ccc(NC2=C(Cl)C(=O)c3nc(C)ccc3C2=O)cc1
7. CCC(C)(C)NC1=C(NC(C)=O)C(=O)c2ccccc2C1=O

3.01 µM
> 100 µM
> 31.6 µM
3.34 µM
> 100 µM
2.88 µM
> 75 µM

Hi, could you look up TGI for each item in my list?
1. C[C@]12CC[C@H]3[C@@H](C[C@@H]4SC(Nc5cccc(F)c5)=N[C@@]45CC(=O)CC[C@]35C)[C@@H]1CCC2=O
2. Cc1ccc(N2C(=O)/C(=c3\s/c(=C(/N)O)c(=N)n3-c3ccccc3)SC2=S)cc1
3. CN/N=C(\C)CC(=O)Nc1cccc(Cl)c1C
4. COc1cc(/C=C2\NC(=O)N(/C=C3\C(=O)Oc4ccccc4C3=O)C2=O)ccc1O

1: 3.59 µM; 2: > 100 µM; 3: > 100 µM; 4: > 100 µM

====

# Test system: NCI-H460 lung
# Experimental Details: NCI tumour cell line growth inhibition, 48 h
Property Name: TGI (µM)
One number for each entry, in µM.

Cc1cc(NC(=O)CCc2ccc(N3C(N)=NC(N)=NC3(C)C)cc2)ccc1S(=O)(=O)F : 36.1

Answer for every listed entry: what is its TGI? The entries follow.
1. Cc1sc(N=Nc2c(O)[nH]c3ccccc23)nc1-c1ccccc1
2. C[C@]12CC[C@@H]3c4ccc(O)cc4CC[C@H]3[C@@H]1CC[C@@H]2NS(=O)(=O)c1cccc(Br)c1
3. OCCOCCO[P+]1(OCCOCCO)n2c3ccc2C(c2ccccc2)=C2C=CC(=N2)C(c2ccccc2)=c2ccc(n21)=C(c1ccccc1)C1=NC(=C3c2ccccc2)C=C1

1. 42.2
2. 6.67
3. 0.886

====

Could you please report measured TGI for the items listed next?
# System: HOP-92 NSCLC
# Experimental Details: NCI tumour cell line growth inhibition, 48 h

These solved cases illustrate the format of a correct answer.
Cc1ccc(C2SC(N)=Nc3c2c(C)nn3C(=O)c2ccncc2)cc1 (stereo unspecified) : > 10 µM
CCCCNc1nc(SC)nc2nc[nH]c12 : > 100 µM
CC(C)NC(C)Cc1ccccc1 (stereo unspecified) : > 100 µM
COCCN1C2=CCCCC2=Nc2c(N)nc(N)nc21 : > 100 µM

Give one value of TGI per listed compound.
1. O=C=Nc1ccc(Cc2ccc(N=C=O)cc2)cc1 (tested in a mixture with another compound)
2. Cc1cc(NC(=O)CCc2ccc(N3C(N)=NC(N)=NC3(C)C)cc2)ccc1S(=O)(=O)F
3. NC(=O)c1c(OCc2c(F)cc(Br)cc2F)nsc1NC(=O)NCCCCN1CCCC1
4. Nc1nc(N)c(-c2ccccc2)c(C(=O)Nc2ccc(Cl)c(Cl)c2)n1
5. COC(=O)C1=NN2c3ccccc3CN([C@@H](C)c3ccccc3)C(=O)[C@@H]2C1

["> 25 µg/mL", "> 100 µM", "> 10 µM", "> 100 µM", "> 100 µM"]

Could you tell me TGI for each of these compounds? They are listed below.
1. CC1=NN(C(=O)c2ccc(Cl)cc2)C(=O)/C1=C/c1cccc(O)c1
2. CC(=O)OCCn1c(Cc2ccc([N+](=O)[O-])cc2)nn(C(C)=O)c1=O

> 100 µM
> 100 µM

====

# System: NCI-H460 lung
# Experimental Details: NCI tumour cell line growth inhibition, 48 h
Property Name: TGI

For each of the molecules below, state TGI.
1. CC(NC1CCC[C@H]1O)c1ccccc1 (mixture of isomers)
2. CC[n+]1[b-](C(C)(C)C)n(/N=C(\C)C(C)(C)C)[b-](C(C)(C)C)[n+]1CC
3. C/C=C/C=C/[C@H]1Cc2cc(O)cc(O)c2O1
4. CC(=O)Nc1ccc(/C=c2\sc3nnc(/C=C/c4ccccc4)n3c2=O)cc1
5. COc1ccc(OC)c(-c2nc3sccn3c2/C=C2/C(=O)Nc3ccccc32)c1

1. > 100 µM
2. > 100 µM
3. > 100 µM
4. > 50 µM
5. > 37.6 µM
